Assay: Cmax in healthy human at 500 mg, iv administered as single dose as 1 hr iv infusion
Assay type: ADME, organism-based
Parameters: dose 500 mg, route intravenous
Conditions: in vivo
Result type: Cmax (ng/mL)
Number in ng/mL, nothing else.

Data request, read-out Cmax, for Cn1c(N)c(NC(=O)NCCN)c[n+]1CC1=C(C(=O)O)N2C(=O)[C@@H](NC(=O)/C(=N\OC(C)(C)C(=O)[O-])c3nsc(N)n3)[C@H]2SC1
32200

====

Experiment: Volume of distribution at steady state in healthy human at 1000 mg, iv administered as single dose as 1 hr iv infusion
Type: ADME, organism-based
Settings: in vivo
Result type: Vd

Fill in the blank: the reported Vd of Cn1c(N)c(NC(=O)NCCN)c[n+]1CC1=C(C(=O)O)N2C(=O)[C@@H](NC(=O)/C(=N\OC(C)(C)C(=O)[O-])c3nsc(N)n3)[C@H]2SC1 is ____.
16.3 L

====

Assay: Drug recovery in urine of healthy human at 1500 mg, iv administered as 1 hr infusion every 12 hrs for 10 days measured on day 10
Format: ADME, organism-based
Settings: read-out: Activity
Result type: dose excreted at 10 day (%)
// note: answer is a bare numeric in %

Find the recorded dose excreted at 10 day belonging to Cn1c(N)c(NC(=O)NCCN)c[n+]1CC1=C(C(=O)O)N2C(=O)[C@@H](NC(=O)/C(=N\OC(C)(C)C(=O)[O-])c3nsc(N)n3)[C@H]2SC1 and report it.
105

====

Assay: AUC (0 to infinity) in healthy human at 1500 mg, iv administered as single dose as 1 hr iv infusion
Format: ADME, organism-based
Design: dose 1500 mg, time infinity, route intravenous
Conditions: plasma
Result type: AUC(0-inf) (µg·h/mL)
Express it in µg·h/mL; write the number only.

// returns reported AUC(0-inf) for input Cn1c(N)c(NC(=O)NCCN)c[n+]1CC1=C(C(=O)O)N2C(=O)[C@@H](NC(=O)/C(=N\OC(C)(C)C(=O)[O-])c3nsc(N)n3)[C@H]2SC1
243

====

Test: Renal clearance in healthy human at 1000 mg, iv administered as 1 hr infusion every 8 hrs for 10 days measured on day 10
Format: ADME, organism-based, Kidney
Details: in vivo, read-out: CL_renal
Result type: CL renal
Number first, unit second: that is the form wanted.

Query: CL renal; subject: Cn1c(N)c(NC(=O)NCCN)c[n+]1CC1=C(C(=O)O)N2C(=O)[C@@H](NC(=O)/C(=N\OC(C)(C)C(=O)[O-])c3nsc(N)n3)[C@H]2SC1 [CEFTOLOZANE]
111 mL/min

====

Test: Tmax in healthy human at 250 mg, iv administered as single dose as 1 hr iv infusion
Format: ADME, organism-based
Conditions: in vivo
Result type: Tmax (h)
Please state the figure in h; there is no need to write the unit.

Value lookup for Tmax; key = Cn1c(N)c(NC(=O)NCCN)c[n+]1CC1=C(C(=O)O)N2C(=O)[C@@H](NC(=O)/C(=N\OC(C)(C)C(=O)[O-])c3nsc(N)n3)[C@H]2SC1
1.03

====

Test: Mean residence time in healthy human at 500 mg, iv administered as 1 hr infusion every 8 hrs for 10 days measured on day 1
Assay type: ADME, organism-based
Details: in vivo
Result type: MRT

Entry Cn1c(N)c(NC(=O)NCCN)c[n+]1CC1=C(C(=O)O)N2C(=O)[C@@H](NC(=O)/C(=N\OC(C)(C)C(=O)[O-])c3nsc(N)n3)[C@H]2SC1 [CEFTOLOZANE] : reported MRT = ?
2.42 h
